Recorded values, source paper PMC3399519.

- Test system: HAT activity in HeLa nuclear extracts (histone H3 acetylation)
- Format: biochemical
- test_settings: 50 µM compound
metric: inhibitory potency on histone H3 acetylation compared to histone H4 acetylation

{"query_smiles": "CCCCCOc1ccc(CCc2cccc(O)c2C(=O)O)cc1", "result": "opposite"}
{"query_smiles": "CCCCCCCCCCCCCCOc1ccc(CCc2cccc(O)c2C(=O)O)cc1", "result": "opposite"}
{"query_smiles": "CCCCCOc1ccc(/C=C\\c2cccc(O)c2C(=O)O)cc1", "result": "opposite"}
